- Assayed target: T1, H93P
- T1 chain: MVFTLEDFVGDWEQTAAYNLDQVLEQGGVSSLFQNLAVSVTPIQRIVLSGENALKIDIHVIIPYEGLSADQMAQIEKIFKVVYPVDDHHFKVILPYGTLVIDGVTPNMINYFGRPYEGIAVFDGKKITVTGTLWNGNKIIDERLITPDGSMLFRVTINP
- Setup conditions: modification not given
Quantity name: pKd
Convention used: pKd is expressed as -log10 of the molar concentration.

-- ask Look up pKd: NVSGWRLFKKISN [NLpep78]
-- reply 7.62

meta.source: patent US20140348747A1
